Experiment: Compound analysis: liver, adipose and plasma concentrations 3 days after a single oral dose
Type: in vivo, female C57BL/6 mice
Settings: female, C57BL/6, mouse, in vivo, po, 10 µg/kg bw, oral dose 10 µg/kg bw; 3 days after single oral dose; read-out: Liver concentration
Protocol: Animals. Eight-week-old female C57BL/6 mice (Harlan laboratories, Venray, the Netherlands) were randomly assigned to treatment groups (six animals per group) and allowed to acclimate for 1.5 weeks. […] Compound analysis. […] Because the samples typically contained high levels of the analytes, only a small fraction was evaporated and analyzed. […] For lipid determination, samples were evaporated to dryness after the extraction step, and the amount of lipids was determined gravimetrically. […]
Form field: concentration at 3 days (one value per entry).
Give the quantity in ng/g, number only.

For record Clc1cc2c(cc1Cl)Oc1c(cc(Cl)c(Cl)c1Cl)O2 the listed concentration at 3 days is 103

Lab note: measured concentration at 3 days of Clc1cc2c(cc1Cl)Oc1cc(Cl)c(Cl)cc1O2 [TCDD, 2,3,7,8-tetrachlorodibenzodioxin, reference compound] was 85

Origin of values: paper PMC3702004
